- Tested on: SW-620 colon
- MEASUREMENT NOTES: NCI tumour cell line growth inhibition, 48 h; in the data active means GI50 below about 0.43 µM; inactive means the rest
Form entry, call: pick from class 1 for active, class 0 for inactive

Input: // outcome(item) with item = O=C1[C@@H]2C(c3ccc(Br)cc3)=NO[C@@H]2C(=O)N1c1ccc(Cc2ccc(N3C(=O)[C@H]4C(c5ccc(Br)cc5)=NO[C@H]4C3=O)cc2)cc1
Output: class 0

Input: // outcome(item) with item = COc1cc[c]([Sn]([c]2ccc(OC)cc2)([c]2ccc(OC)cc2)[c]2ccc(OC)cc2)cc1
Output: class 0

Input: // outcome(item) with item = CC1CC2C3CCC4=CC(=O)C=CC4(C)C3(F)C(O)CC2(C)C1(O)C(=O)COP(=O)(O)O (stereo not drawn)
Output: class 0

Input: // outcome(item) with item = COc1cccc(/C=C/C(=O)c2ccc3cc(OC)ccc3c2)c1
Output: class 0

Input: // outcome(item) with item = CCN1CCN(c2nc(C)cc(N(CCCNc3ccnc4cc(Cl)ccc34)Cc3ccc4c(c3)OCO4)n2)CC1
Output: class 0

Input: // outcome(item) with item = C=C1C(=O)O[C@H]2[C@H]1CC/C(COC(=O)c1cc(OC)c(OC)c(OC)c1)=C\CC[C@@]1(C)O[C@@H]21
Output: class 1

Input: // outcome(item) with item = O=C1/C(=C/c2ccc(Cl)c(Cl)c2)CN(C(=O)C(Cl)Cl)C/C1=C\c1ccc(Cl)c(Cl)c1
Output: class 1

Input: // outcome(item) with item = NC(N)=N/N=C/c1c(-c2ccsc2)nc2n1CCS2
Output: class 0
